Attribution: patent USRE48461E1

System: V7 splice variant of the AR mRNA
measurementProtocol: AR V7 splice variant mRNA in CWR22-RV1 cells (RT-PCR SYBR Green)
Assay type: cell-based, human
reportedConditions: RNAiMax, dose 50.0 nM, 6 days
Oligonucleotides are written 5' to 3', each unit as a sugar letter and its base; * is a phosphorothioate linkage, no mark a phosphodiester; rarer units and linkages stand in square brackets, end groups in braces. Plain capitals give the bases only. e = 2'-O-(2-methoxyethyl) (MOE); k = constrained ethyl (cEt); [5mC] = 5-methylcytosine; d = 2'-deoxy (DNA)
propertyMeasured: Percent inhibition of AR splice variant, V7 (%)
The answer is to be given in %; state only the numeric part.

biopolymerSequence	unitAnnotation	resultNumber
CTAAACTTCCCGTGGC (k[5mC]*kT*kA*dA*dA*d[5mC]*dT*dT*d[5mC]*d[5mC]*d[5mC]*dG*dT*kG*kG*k[5mC]) [ISIS 549434, targets 3'-end of exon 8]	%	23
AAGTTGTAGTAGTCGC (kA*kA*kG*dT*dT*dG*dT*dA*dG*dT*dA*dG*dT*k[5mC]*kG*k[5mC]) [ISIS 549372, targets exon 1]	%	82
ACCAAGTTTCTTCAGC (LNA gapmer, phosphorothioate backbone, further chemistry not given here) [ISIS 554221, 3-10-3 LNA gapmer, phosphorothioate backbone, targeted to exon 4 of AR; benchmark, reference compound]	%	35
GTTGATTTAATGGTTG (all phosphorothioate, sugars by position not given here; further chemistry not fully specified) [ISIS 549458]	%	82

Turning now to a further record.
Quick check: Percent inhibition of AR splice variant, V7 of TCTTATGTTTCCGAACCGTT (sugars from the 5' end e5 d10 e5, backbone and methylation of C not given here) [ISIS 347526, reference compound] ?
10

====

System: AR mRNA
measurementProtocol: Dose-dependent antisense inhibition of human AR in HuVEC cells (electroporation, qRT-PCR RTS3559, IC50)
Format: cell-based
reportedConditions: 1500.0 nM; HuVEC, ~16 h; Table 3
Oligonucleotides are written 5' to 3', each unit as a sugar letter and its base; * is a phosphorothioate linkage, no mark a phosphodiester; rarer units and linkages stand in square brackets, end groups in braces. Plain capitals give the bases only. k = constrained ethyl (cEt); [5mC] = 5-methylcytosine; d = 2'-deoxy (DNA)
We use 90% as the dividing line for percent inhibition of AR: on or above the line is Criterion met, below is Criterion not met.

Example entries begin here.
substance	qualitativeLabel
549360 (kG*kG*kT*d[5mC]*dG*dA*dA*dG*dT*dG*d[5mC]*d[5mC]*d[5mC]*k[5mC]*k[5mC]*kT; antisense) [compound 549360]	Criterion not met
549361 (kG*kA*k[5mC]*dA*d[5mC]*d[5mC]*dG*dA*d[5mC]*dA*d[5mC]*dT*dG*k[5mC]*k[5mC]*kT; antisense) [compound 549361]	Criterion not met

Consider the additional substance presented here.
Tell me whether percent inhibition of AR is at least 90% here: 549358 (kA*kT*kG*dG*dT*dG*d[5mC]*dT*dG*dG*d[5mC]*d[5mC]*dT*k[5mC]*kG*k[5mC]; antisense) [compound 549358]
Criterion met

====

Tested on: TMPRSS2 mRNA
measurementProtocol: TMPRSS2 mRNA levels in LMR20 cells
Type: cell-based, human
reportedConditions: LMR20 cells, DHT 10 nM 72 hrs, ASO 5.0 μM
Oligonucleotides are written 5' to 3', each unit as a sugar letter and its base; * is a phosphorothioate linkage, no mark a phosphodiester; rarer units and linkages stand in square brackets, end groups in braces. Plain capitals give the bases only. e = 2'-O-(2-methoxyethyl) (MOE); l = locked nucleic acid (LNA); k = constrained ethyl (cEt); [5mC] = 5-methylcytosine; d = 2'-deoxy (DNA)
Each entry below lists one item and its recorded TMPRSS2 mRNA levels (% baseline value) after treatment with DHT value.

# example entries with known answers
substance	result
554221 (ACCAAGTTTCTTCAGC; sugars from the 5' end l3 d10 l3, all phosphorothioate, methylation of C not given here) [compound 554221]	114 % baseline value
560131 (antisense kT*kT*kG*dA*dT*dT*dT*dA*dA*dT*dG*dG*kT*kT*kG*e[5mC]) [compound 560131]	71 % baseline value

Quick check: TMPRSS2 mRNA levels (% baseline value) after treatment with DHT of 569236 (antisense eT*kG*kA*kT*dT*dT*dA*dA*dT*dG*dG*kT*kT*kG*e[5mC]*eA) [compound 569236] ?
110 % baseline value

Quick check: TMPRSS2 mRNA levels (% baseline value) after treatment with DHT of 549458 (kG*kT*kT*dG*dA*dT*dT*dT*dA*dA*dT*dG*dG*kT*kT*kG) [compound 549458] ?
91 % baseline value
